- targetOrSystem: Son of sevenless homolog 1 (Homo sapiens)
- Sequence (Q07889 whole entry, the tested form may be a part): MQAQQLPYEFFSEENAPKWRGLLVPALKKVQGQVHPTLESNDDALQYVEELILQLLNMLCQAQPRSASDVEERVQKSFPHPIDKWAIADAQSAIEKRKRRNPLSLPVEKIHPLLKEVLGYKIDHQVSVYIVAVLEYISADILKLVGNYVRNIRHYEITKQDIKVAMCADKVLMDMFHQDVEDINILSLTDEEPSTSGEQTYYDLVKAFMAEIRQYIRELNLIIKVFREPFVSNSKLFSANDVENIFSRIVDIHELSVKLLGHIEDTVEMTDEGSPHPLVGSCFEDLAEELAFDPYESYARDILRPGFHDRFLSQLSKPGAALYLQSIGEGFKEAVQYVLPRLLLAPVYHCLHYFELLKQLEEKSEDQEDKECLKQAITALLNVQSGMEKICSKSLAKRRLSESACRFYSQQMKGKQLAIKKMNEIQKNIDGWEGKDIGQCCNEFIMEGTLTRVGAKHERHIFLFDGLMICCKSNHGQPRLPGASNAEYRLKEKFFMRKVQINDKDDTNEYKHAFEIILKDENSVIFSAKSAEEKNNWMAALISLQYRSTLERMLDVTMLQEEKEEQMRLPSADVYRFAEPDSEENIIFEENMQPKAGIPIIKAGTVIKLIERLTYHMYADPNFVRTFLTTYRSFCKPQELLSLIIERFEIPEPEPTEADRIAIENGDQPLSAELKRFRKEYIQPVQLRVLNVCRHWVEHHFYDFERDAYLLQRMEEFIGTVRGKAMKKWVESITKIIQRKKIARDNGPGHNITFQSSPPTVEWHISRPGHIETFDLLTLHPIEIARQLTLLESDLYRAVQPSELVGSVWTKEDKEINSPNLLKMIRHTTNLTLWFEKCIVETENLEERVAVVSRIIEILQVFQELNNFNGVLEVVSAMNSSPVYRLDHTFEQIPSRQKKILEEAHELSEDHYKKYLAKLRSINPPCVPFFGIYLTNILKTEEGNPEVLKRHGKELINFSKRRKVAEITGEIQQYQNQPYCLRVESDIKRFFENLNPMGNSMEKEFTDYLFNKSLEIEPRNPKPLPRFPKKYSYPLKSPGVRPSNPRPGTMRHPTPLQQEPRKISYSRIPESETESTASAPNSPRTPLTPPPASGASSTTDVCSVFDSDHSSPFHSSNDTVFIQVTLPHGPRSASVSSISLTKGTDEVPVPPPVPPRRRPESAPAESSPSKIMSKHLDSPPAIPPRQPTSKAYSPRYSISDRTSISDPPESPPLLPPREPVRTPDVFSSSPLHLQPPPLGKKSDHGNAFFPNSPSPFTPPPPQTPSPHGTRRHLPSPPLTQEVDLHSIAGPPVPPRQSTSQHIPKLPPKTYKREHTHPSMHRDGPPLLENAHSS
- experiment: Inhibition of SOS1 CD (564 to 1049 residues) (unknown origin) mediated nucleotide exchange in presence of BODIPY-FL-GDP by fluorescence based analysis
pIC50: −log10 of the molar value.
measurementName: pIC50

>>> number("CC(=O)[C@]1(O)Cc2c(O)c3c(c(O)c2[C@@H](O[C@H]2C[C@H](N)[C@H](O)[C@H](C)O2)C1)C(=O)c1ccccc1C3=O")
5.22
>>> number("COc1c(C)ccc2c1C(=O)c1c(O)c3c(c(O)c1C2=O)CC(C)(O)C(O)C3O[C@@H]1OC[C@H](O)[C@@H](OC)[C@H]1O (some centres not stated)")
5.05
